# System: 60 different human tumor cell lines
# measurementProtocol: NCI Development Therapeutics Program 60 cell line screen, one dose
# Assay type: cell-based
# protocolConditions: Breast Cancer, MCF7
quantityKind: Growth Percent (%)
Give the value, in units of %, as a plain number.

Here is how some molecules turned out for Growth Percent.
{"molecule": "C[C@]12CC[C@H]3[C@@H](CC=C4c5sc(Nc6ccccc6)nc5CC[C@@]43C)[C@@H]1CC[C@@H]2O [IIIa.10]", "Growth Percent [%]": 29.18}
{"molecule": "C[C@]12CCc3sc(Nc4ccc(F)cc4F)nc3C1=CC[C@@H]1[C@@H]2CC[C@]2(C)C(=O)CC[C@@H]12 [IIa.10]", "Growth Percent [%]": 14.62}
{"molecule": "C[C@]12CCc3sc(Nc4ccc(OC(F)(F)F)cc4)nc3C1=CC[C@@H]1[C@@H]2CC[C@]2(C)C(=O)CC[C@@H]12 [IIa.19]", "Growth Percent [%]": 17.08}

We next turn to a different molecule, shown below.
[ask] Record request: Growth Percent value, item C[C@]12CC[C@H]3[C@@H](CC=C4c5sc(-c6ccc(O)cc6)nc5CC[C@@]43C)[C@@H]1CC[C@@H]2O [III.5]
[reply] 42.59

---

In this section we review reported TGI values for a set of compounds.
# System: 60 different human tumor cell lines
# protocolConditions: MOLT-4 (Leukemia), five dose

// worked examples, TGI included
{"compound": "C[C@]12CCc3sc(NCCc4ccccc4)nc3C1=CC[C@@H]1[C@@H]2CC[C@]2(C)C(=O)CC[C@@H]12 [IIa.2]", "quantityKind": "TGI", "measured": ">1.00E−4"}
{"compound": "C[C@]12CCc3sc(Nc4ccc(OC(F)(F)F)cc4)nc3C1=CC[C@@H]1[C@@H]2CC[C@]2(C)C(=O)CC[C@@H]12 [IIa.19]", "quantityKind": "TGI", "measured": "1.19E−5"}
{"compound": "C[C@]12CCc3nc(Nc4ccc(O)cc4)sc3C1=CC[C@@H]1[C@@H]2CC[C@]2(C)C(=O)CC[C@@H]12 [IIa.35]", "quantityKind": "TGI", "measured": ">1.00E−4"}
{"compound": "C[C@]12CCc3sc(Nc4ccc(F)cc4F)nc3C1=CC[C@@H]1[C@@H]2CC[C@]2(C)C(=O)CC[C@@H]12 [IIa.10]", "quantityKind": "TGI", "measured": ">1.00E−4"}
{"compound": "C[C@]12CCc3sc(Nc4cccc(O)c4)nc3C1=CC[C@@H]1[C@@H]2CC[C@]2(C)C(=O)CC[C@@H]12 [IIa.17]", "quantityKind": "TGI", "measured": ">1.00E−4"}
{"compound": "C[C@]12CCc3nc(N)sc3C1=CC[C@@H]1[C@@H]2CC[C@]2(C)C(=NNC(N)=O)CC[C@@H]12 [IVb.1]", "quantityKind": "TGI", "measured": "7.02E−6"}

[ask] Find the recorded TGI belonging to C[C@]12CC[C@H]3[C@@H](CC=C4c5sc(-c6ccc(O)cc6)nc5CC[C@@]43C)[C@@H]1CC[C@@H]2O [III.5] and report it.
[reply] >1.00E−4

[ask] Recorded TGI of C[C@]12CC[C@H]3[C@@H](CC=C4c5sc(Nc6ccccc6)nc5CC[C@@]43C)[C@@H]1CC[C@@H]2O [IIIa.10] , please.
[reply] 8.07E−6

---

# System: 60 different human tumor cell lines
# protocolConditions: NCI-H460 (Non-small Cell Lung Cancer), five dose
Readings of TGI for the listed compounds

Example entries begin here.
{"chemSmiles": "C[C@]12CCc3nc(N)sc3C1=CC[C@@H]1[C@@H]2CC[C@]2(C)C(=NNC(N)=O)CC[C@@H]12", "subjectOfTest": "60 different human tumor cell lines", "measured": "3.61E−6"}
{"chemSmiles": "C[C@]12CCc3sc(Nc4ccc(OC(F)(F)F)cc4)nc3C1=CC[C@@H]1[C@@H]2CC[C@]2(C)C(=O)CC[C@@H]12", "subjectOfTest": "60 different human tumor cell lines", "measured": "1.18E−5"}
{"chemSmiles": "C[C@]12CCc3sc(NCCc4ccccc4)nc3C1=CC[C@@H]1[C@@H]2CC[C@]2(C)C(=O)CC[C@@H]12", "subjectOfTest": "60 different human tumor cell lines", "measured": ">1.00E−4"}
{"chemSmiles": "C[C@]12CC[C@H]3[C@@H](CC=C4c5sc(Nc6ccccc6)nc5CC[C@@]43C)[C@@H]1CC[C@@H]2O", "subjectOfTest": "60 different human tumor cell lines", "measured": "4.04E−6"}
{"chemSmiles": "C[C@]12CCc3sc(Nc4cccc(O)c4)nc3C1=CC[C@@H]1[C@@H]2CC[C@]2(C)C(=O)CC[C@@H]12", "subjectOfTest": "60 different human tumor cell lines", "measured": "2.79E−5"}

[ask] What value of TGI has been reported for the following compound? "C[C@]12CCc3nc(Nc4ccc(O)cc4)sc3C1=CC[C@@H]1[C@@H]2CC[C@]2(C)C(=O)CC[C@@H]12"
[reply] 1.05E−5

[ask] // TGI lookup, key: "C[C@]12CC[C@H]3[C@@H](CC=C4c5sc(-c6ccc(O)cc6)nc5CC[C@@]43C)[C@@H]1CC[C@@H]2O"
[reply] >1.00E−4

---

# Tested on: 60 different human tumor cell lines
# measurementProtocol: NCI Development Therapeutics Program 60 cell line screen, one dose
# Type: cell-based
# protocolConditions: Ovarian Cancer, NCI/ADR-RES
Let's look at some molecules and their measured Growth Percent.

{"chemSmiles": "C[C@]12CCc3sc(Nc4ccc(OC(F)(F)F)cc4)nc3C1=CC[C@@H]1[C@@H]2CC[C@]2(C)C(=O)CC[C@@H]12", "Growth Percent": "81.59%"}
{"chemSmiles": "C[C@]12CC[C@H]3[C@@H](CC=C4c5sc(Nc6ccccc6)nc5CC[C@@]43C)[C@@H]1CC[C@@H]2O", "Growth Percent": "36.29%"}
{"chemSmiles": "C[C@]12CCc3nc(Nc4ccc(O)cc4)sc3C1=CC[C@@H]1[C@@H]2CC[C@]2(C)C(=O)CC[C@@H]12", "Growth Percent": "68.59%"}
{"chemSmiles": "C[C@]12CCc3nc(N)sc3C1=CC[C@@H]1[C@@H]2CC[C@]2(C)C(=NNC(N)=O)CC[C@@H]12", "Growth Percent": "−5.32%"}
{"chemSmiles": "CN(c1ccccc1)c1nc2c(s1)CC[C@@]1(C)C2=CC[C@@H]2[C@@H]1CC[C@]1(C)C(=O)CC[C@@H]21", "Growth Percent": "43.96%"}

[ask] Need Growth Percent, item "C[C@]12CC[C@H]3[C@@H](CC=C4c5sc(-c6ccc(O)cc6)nc5CC[C@@]43C)[C@@H]1CC[C@@H]2O"
[reply] 76.79%

[ask] Fill blank: measured Growth Percent of the molecule "C[C@]12CCc3sc(Nc4ccc(F)cc4F)nc3C1=CC[C@@H]1[C@@H]2CC[C@]2(C)C(=O)CC[C@@H]12" is ____.
[reply] 67.57%

[ask] Param item = "C[C@]12CCc3sc(Nc4cccc(O)c4)nc3C1=CC[C@@H]1[C@@H]2CC[C@]2(C)C(=O)CC[C@@H]12" ; retrieve measured Growth Percent.
[reply] 78.93%

[ask] Which Growth Percent value belongs to "C[C@]12CCc3sc(NCCc4ccccc4)nc3C1=CC[C@@H]1[C@@H]2CC[C@]2(C)C(=O)CC[C@@H]12" ?
[reply] 70.16%

---

# Test system: 60 different human tumor cell lines
# measurementProtocol: NCI Development Therapeutics Program 60 cell line screen, one dose
# Assay type: cell-based
# protocolConditions: Prostate Cancer, PC-3
Form field: Growth Percent (one value per entry).
Provide the reading as a plain figure in %.

{"chemSmiles": "C[C@]12CCc3sc(Nc4cccc(O)c4)nc3C1=CC[C@@H]1[C@@H]2CC[C@]2(C)C(=O)CC[C@@H]12", "Growth Percent / %": 28.08}
{"chemSmiles": "C[C@]12CCc3sc(Nc4ccc(F)cc4F)nc3C1=CC[C@@H]1[C@@H]2CC[C@]2(C)C(=O)CC[C@@H]12", "Growth Percent / %": 52.88}
{"chemSmiles": "CN(c1ccccc1)c1nc2c(s1)CC[C@@]1(C)C2=CC[C@@H]2[C@@H]1CC[C@]1(C)C(=O)CC[C@@H]21", "Growth Percent / %": 71.01}
{"chemSmiles": "C[C@]12CC[C@H]3[C@@H](CC=C4c5sc(Nc6ccccc6)nc5CC[C@@]43C)[C@@H]1CC[C@@H]2O", "Growth Percent / %": 39.21}
{"chemSmiles": "C[C@]12CC[C@H]3[C@@H](CC=C4c5sc(-c6ccc(O)cc6)nc5CC[C@@]43C)[C@@H]1CC[C@@H]2O", "Growth Percent / %": 49.49}
{"chemSmiles": "C[C@]12CCc3sc(NCCc4ccccc4)nc3C1=CC[C@@H]1[C@@H]2CC[C@]2(C)C(=O)CC[C@@H]12", "Growth Percent / %": 38.82}
{"chemSmiles": "C[C@]12CCc3nc(Nc4ccc(O)cc4)sc3C1=CC[C@@H]1[C@@H]2CC[C@]2(C)C(=O)CC[C@@H]12", "Growth Percent / %": 39.10}
{"chemSmiles": "C[C@]12CCc3nc(N)sc3C1=CC[C@@H]1[C@@H]2CC[C@]2(C)C(=NNC(N)=O)CC[C@@H]12", "Growth Percent / %": 57.29}

[ask] What Growth Percent value was documented for this compound, "C[C@]12CCc3sc(Nc4ccc(OC(F)(F)F)cc4)nc3C1=CC[C@@H]1[C@@H]2CC[C@]2(C)C(=O)CC[C@@H]12" ?
[reply] 38.59
